- assay-notes: Half life in BALB/c mouse at 20 mg/kg, po
- Type: ADME, organism-based
- run-conditions: in vivo
quantity-kind: half-life (min)

INSERT INTO assay_data (compound, readout_value) VALUES
  ('O=C1CC(c2nc(-c3ccc(F)c4cn[nH]c34)no2)CCCN1c1ccc(F)cc1 (stereo unspecified)', 224);

###

- assay-notes: Metabolic stability of the compound in human liver microsomes assessed as parent compound remaining at 10 uM measured after 60 mins
- Assay type: ADME, Microsome
- run-conditions: read-out: Stability
quantity-kind: remaining at 1 h, 10 µM (%)

INSERT INTO results (molecule, readout_value) VALUES
  ('O=C1CC(c2nc(-c3ccc(F)c4cn[nH]c34)no2)CCCN1c1ccc(F)cc1 (stereo unspecified)', 46.3);

###

- assay-notes: Half life in human liver microsomes at 10 uM
- Assay type: ADME, Microsome
quantity-kind: half-life at 10 µM (h)

INSERT INTO results (compound, quantity_kind, readout_value) VALUES
  ('O=C1CC(c2nc(-c3ccc(F)c4cn[nH]c34)no2)CCCN1c1ccc(F)cc1 (stereo unspecified)', 'half-life at 10 µM', 1);

###

- assay-notes: Half life in rat liver microsomes at 10 uM
- Assay type: ADME, Microsome
quantity-kind: half-life at 10 µM (min)

INSERT INTO measurements (compound, unit_symbol, readout_value) VALUES
  ('O=C1CC(c2nc(-c3ccc(F)c4cn[nH]c34)no2)CCCN1c1ccc(F)cc1 (stereo unspecified)', 'min', 10.7);

###

- assay-notes: Cmax in BALB/c mouse at 5 mg/kg, ip
- Format: ADME, organism-based
- Parameters: dose 5 mg/kg, route ip
- run-conditions: in vivo
quantity-kind: Cmax (ng/mL)

INSERT INTO assay_data (compound, readout_value) VALUES
  ('O=C1CC(c2nc(-c3ccc(F)c4cn[nH]c34)no2)CCCN1c1ccc(F)cc1 (stereo unspecified)', 1080);

###

- assay-notes: Half life in BALB/c mouse at 1 mg/kg, iv
- Format: ADME, organism-based
- run-conditions: in vivo
quantity-kind: half-life

INSERT INTO assay_data (molecule, readout_value) VALUES
  ('O=C1CC(c2nc(-c3ccc(F)c4cn[nH]c34)no2)CCCN1c1ccc(F)cc1 (stereo unspecified)', '1.18 h');

###

- assay-notes: AUC(0 to t) in BALB/c mouse at 1 mg/kg, iv
- Type: ADME, organism-based
- Set-up: dose 1 mg/kg, route iv
- run-conditions: in vivo
quantity-kind: AUC(0-t) (ng·h/mL)

INSERT INTO assay_data (compound, readout_value) VALUES
  ('O=C1CC(c2nc(-c3ccc(F)c4cn[nH]c34)no2)CCCN1c1ccc(F)cc1 (stereo unspecified)', 413);

###

- assay-notes: MRT(0 to t) in BALB/c mouse at 5 mg/kg, po
- Assay type: ADME, organism-based
- run-conditions: in vivo
quantity-kind: MRT last

INSERT INTO results (compound, quantity_kind, readout_value) VALUES
  ('O=C1CC(c2nc(-c3ccc(F)c4cn[nH]c34)no2)CCCN1c1ccc(F)cc1 (stereo unspecified)', 'MRT last', '2.14 h');

###

- assay-notes: Intrinsic clearance in rat liver at 10 uM measured per kg body weight
- Assay type: ADME, tissue-based
quantity-kind: CLH (mL/min/kg)

INSERT INTO assay_data (molecule, readout_value) VALUES
  ('O=C1CC(c2nc(-c3ccc(F)c4cn[nH]c34)no2)CCCN1c1ccc(F)cc1 (stereo unspecified)', 232);

###

Entries and their pEC50
- tested-on: Cannabinoid receptor 2 (Homo sapiens, UniProt P34972)
- Sequence (P34972 whole entry): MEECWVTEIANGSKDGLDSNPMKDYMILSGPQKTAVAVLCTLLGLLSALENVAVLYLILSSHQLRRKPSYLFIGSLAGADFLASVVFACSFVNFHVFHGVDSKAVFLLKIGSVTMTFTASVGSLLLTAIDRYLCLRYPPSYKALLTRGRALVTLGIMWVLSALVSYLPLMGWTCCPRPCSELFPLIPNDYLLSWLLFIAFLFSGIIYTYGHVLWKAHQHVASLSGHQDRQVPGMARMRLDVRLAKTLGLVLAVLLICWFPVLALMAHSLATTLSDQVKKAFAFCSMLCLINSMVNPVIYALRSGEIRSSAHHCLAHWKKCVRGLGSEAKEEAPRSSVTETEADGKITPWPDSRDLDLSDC
- assay-notes: Agonist activity at human CB2 receptor expressed in CHO cells assessed as inhibition of forskolin-stimulated intracellular cAMP accumulation measured after 30 mins by Glosensor assay
- Assay type: functional, cell-based
pEC50: −log10 of the molar value.
quantity-kind: pEC50

INSERT INTO results (compound, quantity_kind, readout_value) VALUES
  ('O=C1CC(c2nc(Cc3ccc(F)cc3)no2)CCCN1c1ccc(F)cc1 (stereo not given)', 'pEC50', '< 5.00'),
  ('O=C1CC(c2nc(-c3ccccc3)no2)CCN1c1ccc(F)cc1 (stereo not given)', 'pEC50', '< 5.00'),
  ('O=C1CC(c2nc(Cc3cccc(F)c3)no2)CCCN1c1ccc(F)cc1 (stereo not given)', 'pEC50', '< 5.00'),
  ('Fc1ccc(Nc2ccc(-c3nc(-c4ccccc4)no3)cc2)cc1', 'pEC50', '< 5.00'),
  ('O=C1CC(c2nc(-c3ccc(F)cc3Cl)no2)CCCN1c1ccc(F)cc1 (stereo not given)', 'pEC50', '< 5.00');
